B1: library; numbered along this chain (parent)
chain: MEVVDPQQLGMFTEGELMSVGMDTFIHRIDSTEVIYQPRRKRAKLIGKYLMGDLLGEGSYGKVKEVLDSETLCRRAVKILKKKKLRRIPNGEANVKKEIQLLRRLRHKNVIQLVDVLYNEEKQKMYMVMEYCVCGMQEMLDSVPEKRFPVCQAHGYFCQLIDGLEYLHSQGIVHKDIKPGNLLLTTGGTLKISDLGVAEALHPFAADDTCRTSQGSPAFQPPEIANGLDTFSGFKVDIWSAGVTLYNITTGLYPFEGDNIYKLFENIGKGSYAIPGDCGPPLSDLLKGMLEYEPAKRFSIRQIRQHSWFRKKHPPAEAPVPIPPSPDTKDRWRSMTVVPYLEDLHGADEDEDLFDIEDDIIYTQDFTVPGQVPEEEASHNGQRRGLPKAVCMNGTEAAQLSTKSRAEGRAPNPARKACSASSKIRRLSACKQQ

Variants of: B1
assayText: STK11 functional score (HeLa growth suppression), rescaled enrichment; synonymous median = 1, nonsense median = 0 (normalised score)
protocolConditions: with HeLa; variant type: missense
metric: STK11 functional score

The following variants have reported results that may help.
• H174F = 0.138
• P217S = 0.334
• V372S = 1.44
• D343A = 1.47
• E57D = 0.893

# input Query (variant): `V66F` ; field requested: STK11 functional score
# output 0.608

# input Which measured STK11 functional score value corresponds to `I88E` ?
# output 1.53

# input What measured STK11 functional score goes with `E92R` ?
# output 1.64

# input What STK11 functional score value was documented for this variant, `E145S` ?
# output 1.45

# input # lookup: STK11 functional score of `L285H`
# output -0.443
